Measured MIC, listed per entry.
tested on: Escherichia coli ATCC 25922; assay: Minimal Inhibitory Concentration (MIC) determination, broth microdilution; format: cell-based; details: ATCC25922; strain Escherichia coli ATCC 25922; broth microdilution per CLSI M07-A10; 18-24 hours at 35±2° C.; lowest concentration for complete growth inhibition
Hi! Could you send only the number? It should be in µg/mL, unit omitted.

Please review the following examples before continuing.
{"molecule": "C[C@H](C(=O)Nc1cc(C#N)c2c(c1)CC(O)(CNCCC1CN(c3cnc4c(n3)NC(=O)CO4)C(=O)O1)C2)N(C)C (stereo partly drawn)", "MIC [µg/mL]": 4}
{"molecule": "Cc1ncc(C(=O)Nc2cc(F)c3c(c2)CC(CNCCC2CN(c4cnc5c(n4)NC(=O)CO5)C(=O)O2)C3)o1 (stereo not drawn)", "MIC [µg/mL]": 0.25}
{"molecule": "O=C1COc2ncc(N3CC4(CCN(CC5Cc6c(F)cc(NC(=O)[C@@H]7C[C@@H](O)CN7)c(F)c6C5)CC4)OC3=O)nc2N1 (stereo partly drawn)", "MIC [µg/mL]": 0.25}
{"molecule": "CO[C@H]1CN[C@H](C(=O)Nc2cc(F)c3c(c2)CC(CNCCC2CN(c4cnc5c(n4)NC(=O)CO5)C(=O)O2)C3)C1 (stereo partly drawn)", "MIC [µg/mL]": 1}

Input: Quick one: MIC of O=C(O)C(F)(F)F.O=C1COc2ncc(N3CC4(CCN(CC5Cc6cc(NC(=O)[C@]7(CO)CCCN7)cc(F)c6C5)CC4)OC3=O)nc2N1 (stereo partly drawn) ?
Output: 0.25

---

system: Escherichia coli ATCC 25922; experiment: Minimal Inhibitory Concentration (MIC) determination, broth microdilution; format: cell-based; settings: ATCC25922; strain Escherichia coli ATCC 25922; broth microdilution per CLSI M07-A10; 18-24 hours at 35±2° C.; lowest concentration for complete growth inhibition
Measured log10 of MIC, listed per entry.
Kindly note that the scale is log10 and the underlying MIC is in µg/mL.

{"compound": "C[C@H](C(=O)Nc1cc(F)c2c(c1)CC(CNCCC1CN(c3cnc4c(n3)NC(=O)CO4)C(=O)O1)C2)N(C)C (stereo partly drawn) [Example 4]", "studySystem": "Escherichia coli ATCC 25922", "log10 of MIC": -0.90}
{"compound": "O=C1COc2ncc(N3CC(CCNCC4Cc5cc(NC(=O)[C@H]6C[C@@H](O)CN6)cc(F)c5C4)OC3=O)nc2N1 (stereo partly drawn) [Example 45]", "studySystem": "Escherichia coli ATCC 25922", "log10 of MIC": 0.00}
{"compound": "N[C@H](CO)C(=O)Nc1cc(F)c2c(c1)CC(CNCCC1CN(c3cnc4c(n3)NC(=O)CO4)C(=O)O1)C2 (stereo partly drawn) [Example 38]", "studySystem": "Escherichia coli ATCC 25922", "log10 of MIC": -0.30}
{"compound": "O=C1COc2ncc(N3CC4(CCN(CC5Cc6cc(NC(=O)[C@@H]7C[C@@H](O)CN7)cnc6C5)CC4)OC3=O)nc2N1 (stereo partly drawn) [Example 60]", "studySystem": "Escherichia coli ATCC 25922", "log10 of MIC": -0.30}
{"compound": "C[C@H](C(=O)Nc1cc(F)c2c(c1)CC(CNCC[C@H]1CN(c3cnc4c(n3)NC(=O)CO4)C(=O)O1)C2)N(C)C (single isomer, unassigned) [Example 68]", "studySystem": "Escherichia coli ATCC 25922", "log10 of MIC": -0.90}

Input: Quick one: log10 of MIC of Cc1nc(NC(=O)[C@@H](C)N(C)C)cc2c1CC(CN1CCC3(CC1)CN(c1cnc4c(n1)NC(=O)CO4)C(=O)O3)C2 (stereo partly drawn) [Example 29] ?
Output: -0.30

Input: Quick one: log10 of MIC of CO[C@@H]1C[C@@H](C(=O)Nc2cc(F)c3c(c2)CC(CNCCC2CN(c4cnc5c(n4)NC(=O)CO5)C(=O)O2)C3)N(C)C1 (stereo partly drawn) [Example 17] ?
Output: 0.00

Input: Quick one: log10 of MIC of CC(C)(N)C(=O)Nc1cc(F)c2c(c1)CC(CNCCC1CN(c3cnc4c(n3)NC(=O)CO4)C(=O)O1)C2 (stereo not drawn) [Example 43] ?
Output: -0.60

Input: Quick one: log10 of MIC of C[C@H](C(=O)Nc1cc(F)c2c(c1)CC(CN1CCC3(CC1)CN(c1cnc4c(n1)NC(=O)CO4)C(=O)O3)C2)N(C)C (stereo partly drawn) [Example 7] ?
Output: -0.60

Input: Quick one: log10 of MIC of CN(C)CC(=O)Nc1cc(F)c2c(c1)CC(CNCCC1CN(c3cnc4c(n3)NC(=O)CO4)C(=O)O1)C2 (stereo not drawn) [Example 1] ?
Output: -0.90

Input: Quick one: log10 of MIC of CN(C)[C@]1(C(=O)Nc2cc(F)c3c(c2)CC(CNCCC2CN(c4cnc5c(n4)NC(=O)CO5)C(=O)O2)C3)CCOC1 (stereo partly drawn) [Example 19] ?
Output: 0.30

Input: Quick one: log10 of MIC of Cc1cc(NC(=O)[C@@H](C)N(C)C)nc2c1CC(CNCCC1CN(c3cnc4c(n3)NC(=O)CO4)C(=O)O1)C2 (stereo partly drawn) [Example 25] ?
Output: 0.00

Input: Quick one: log10 of MIC of C[C@H](C(=O)Nc1cc(F)c2c(c1)C(O)C(CNCC[C@@H]1CN(c3cnc4c(n3)NC(=O)CO4)C(=O)O1)C2)N(C)C (stereo partly drawn) [Example 66] ?
Output: 0.60

Input: Quick one: log10 of MIC of O=C1COc2ncc(N3CC(CCNCC4Cc5cc(NC(=O)[C@H]6C[C@H](O)CN6)cc(F)c5C4)OC3=O)nc2N1 (stereo partly drawn) [Example 47] ?
Output: -0.60
